Catalogue of pIC50 values
Biological target: CETP (Homo sapiens, UniProt P11597)
Experiment: In vitro CETP activity inhibitory effect in whole plasma
Details: plasma from healthy subjects containing [3H]CE-HDL3, incubated 4 hours at 37° C.; read-out: CETP activity inhibition in whole plasma IC50
pIC50: −log10 of the molar value.
attribute_measured: pIC50

>  <compound>
CCCCC(=O)Nc1ccccc1SSc1ccccc1NC(=O)CCCC [Example 1-2]

>  <test_value>
4.60

$$$$
>  <compound>
CC(C)CCC1(C(=O)Nc2ccccc2S)CCCC1 [Example 13]

>  <test_value>
5.30

$$$$
>  <compound>
COc1ccccc1C(=O)Sc1ccccc1NC(=O)C1(CCC(C)C)CCCC1 [Example 25-63]

>  <test_value>
4.68

$$$$
>  <compound>
CC(C)(C)C(=O)Sc1cc(Cl)c(Cl)cc1NC(=O)c1ccncc1 [Example 66-21]

>  <test_value>
4.39

$$$$
>  <compound>
CC1(C(=O)Nc2ccccc2SC(=O)Sc2ccccc2NC(=O)C2(C)CCCCC2)CCCCC1 [Example 25-95]

>  <test_value>
4.74

$$$$
>  <compound>
CC1(C(=O)Nc2ccccc2SSc2ccccc2NC(=O)C2(C)CCCCC2)CCCCC1 [Example 6]

>  <test_value>
5.30

$$$$
>  <compound>
CC1(C(=O)Nc2ccccc2SC(=O)Cc2cccs2)CCCCC1 [Example 25-28]

>  <test_value>
4.68

$$$$
>  <compound>
CC(C)CCC1(C(=O)Nc2ccccc2SC(=O)C(C)C)CCCCC1 [Example 40]

>  <test_value>
4.64

$$$$
>  <compound>
CC(C)CCC1(C(=O)Nc2ccccc2SC(=O)c2ccccc2)CCCCC1 [Example 44]

>  <test_value>
4.64

$$$$

###

Target: CETP (Homo sapiens)
Sequence (P11597 18-493): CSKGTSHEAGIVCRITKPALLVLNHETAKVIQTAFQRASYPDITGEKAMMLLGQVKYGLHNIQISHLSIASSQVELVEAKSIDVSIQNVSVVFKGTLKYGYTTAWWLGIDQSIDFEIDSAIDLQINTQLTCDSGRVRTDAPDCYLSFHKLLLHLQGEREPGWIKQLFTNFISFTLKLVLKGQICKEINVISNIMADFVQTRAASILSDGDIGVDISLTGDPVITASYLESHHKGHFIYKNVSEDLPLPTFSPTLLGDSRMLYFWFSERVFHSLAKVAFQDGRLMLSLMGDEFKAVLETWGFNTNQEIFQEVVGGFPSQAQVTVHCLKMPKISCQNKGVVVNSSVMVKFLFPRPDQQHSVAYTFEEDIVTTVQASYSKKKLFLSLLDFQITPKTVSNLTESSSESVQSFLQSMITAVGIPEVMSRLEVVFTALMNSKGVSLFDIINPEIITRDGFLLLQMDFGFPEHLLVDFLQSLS
Assay: Ex vivo CETP activity inhibitory effect of plasma from transgenic mice
Parameters: from tissue; host or cells: plasma of transgenic mice carrying the human CETP gene
Conditions: mouse, po; 30 mg/kg, p.o.; 6 hours after administration; transgenic mice with human CETP gene; read-out: CETP activity inhibitory rate in plasma from transgenic mouse

>  <molecular_string>
CC(C)CCC1(C(=O)Nc2ccc(Cl)cc2SC(=O)C(C)(C)C)CCCCC1

>  <inhibition at 30 mg/kg (%)>
1

$$$$
>  <molecular_string>
CC(C)CCC1(C(=O)Nc2ccccc2SC(=O)C(C)(C)O)CCCCC1

>  <inhibition at 30 mg/kg (%)>
48

$$$$
>  <molecular_string>
CC(C)CCC1(C(=O)Nc2ccccc2SC(=O)C2CC2)CCCCC1

>  <inhibition at 30 mg/kg (%)>
38

$$$$
>  <molecular_string>
CC(C)CCC1(C(=O)Nc2cc(C#N)ccc2SC(=O)C(C)(C)C)CCCCC1

>  <inhibition at 30 mg/kg (%)>
1

$$$$
>  <molecular_string>
CCC(CC)CC1(C(=O)Nc2ccccc2SC(=O)C(C)(C)C)CCCCC1

>  <inhibition at 30 mg/kg (%)>
44

$$$$
>  <molecular_string>
CC(=O)NC1(C(=O)Sc2ccccc2NC(=O)C2(CCC(C)C)CCCCC2)CCCCC1

>  <inhibition at 30 mg/kg (%)>
24

$$$$
>  <molecular_string>
CCC(CC)CC1(C(=O)Nc2ccccc2SC(=O)COc2ccc(Cl)cc2)CCCCC1

>  <inhibition at 30 mg/kg (%)>
43

$$$$
>  <molecular_string>
CC(=O)Sc1ccccc1NC(=O)C1(CCC(C)C)CCCCC1

>  <inhibition at 30 mg/kg (%)>
45

$$$$
>  <molecular_string>
CC(C)CCC1(C(=O)Nc2ccccc2S)CCCCC1

>  <inhibition at 30 mg/kg (%)>
45

$$$$
>  <molecular_string>
CC(C)CCC1(C(=O)Nc2ccccc2SC(=O)C(C)(C)C)CCCCC1

>  <inhibition at 30 mg/kg (%)>
39

$$$$
>  <molecular_string>
CCC(CC)CC1(C(=O)Nc2ccccc2SC(=O)COC)CCCCC1

>  <inhibition at 30 mg/kg (%)>
38

$$$$
